Literature pIC50 values, system: Lysine-specific histone demethylase 1A (Homo sapiens).
pIC50: −log10 of the molar value.
experimental readout: pIC50

                                   molecule                               system_name  endpoint_value
0  COc1ccc(-n2nc(C(=O)N3CCC[C@H](N)C3)cc2-c2ccc(C#N)c(F)c2)cc1F  Lysine-specific histone demethylase 1A (Homo sapiens)    6.00 to 6.30
1  N[C@H]1CC[C@H](Cc2nc(C3(CN[C@H]4CC4c4ccccc4)CC3)no2)CC1 (stereo partly shown)  Lysine-specific histone demethylase 1A (Homo sapiens)          ≥ 7.30
2  Cn1c(N2CCC(N)CC2)nc(-c2ccccc2)c(-c2ccc3c(ccn3C)c2)c1=O  Lysine-specific histone demethylase 1A (Homo sapiens)          < 5.00
3  CC(C)(C)n1nnc(C2(CN[C@H]3C[C@@H]3c3ccccc3)CC2)n1  Lysine-specific histone demethylase 1A (Homo sapiens)    7.00 to 7.30
